test: Tanguay_ZF_120hpf_ActivityScore_legacy: (Legacy) Oregon State University Tanguay Lab 120 Hour Post-fertilization zebrafish Assay Score for Activity (AID 2283742)
Activity calls are given as the source filed them. How the source made its calls: active means hit-call score of the fitted dose curve at least 0.9, where 1 is the maximum; inconclusive means response in the unintended direction; inactive means score below 0.9.
Outcome codes: Y (active), N (inactive)

INSERT INTO measurements (compound, label_class) VALUES
  ('CCOCN(C(=O)CCl)c1c(C)cccc1CC', 'Y'),
  ('O=C(O)C(F)(F)C(F)(F)C(F)(F)C(F)(F)C(F)(F)C(F)(F)C(F)(F)F', 'N'),
  ('COc1nn(CSP(=S)(OC)OC)c(=O)s1', 'N'),
  ('ClC1C(Cl)C(Cl)C(Cl)C(Cl)C1Cl (stereo not drawn)', 'N'),
  ('O=[N+]([O-])/N=C1\NCCN1Cc1ccc(Cl)nc1', 'N'),
  ('O=C1c2ccccc2C(=O)N1SC(Cl)(Cl)Cl', 'N'),
  ('CC[C@H](C)[C@H]1O[C@]2(C=C[C@@H]1C)C[C@@H]1C[C@@H](C/C=C(\C)[C@@H](O[C@H]3C[C@H](OC)[C@@H](O[C@H]4C[C@H](OC)[C@@H](O)[C@H](C)O4)[C@H](C)O3)[C@@H](C)/C=C/C=C3\CO[C@@H]4[C@H](O)C(C)=C[C@@H](C(=O)O1)[C@]34O)O2 (tested in a mixture with another compound)', 'Y'),
  ('CCCN(CCC)c1c([N+](=O)[O-])cc(C(F)(F)F)cc1[N+](=O)[O-]', 'N');

----------
tgt: human Constitutive Androstane Receptor (CAR), NR1I3 (gene 9970)
test: NVS_NR_hCAR_Antagonist: NovaScreen (NVS) Nuclear Receptor Binding Assay for human Constitutive Androstane Receptor Antagonism (CAR) (AID 2283344)
Records with an inconclusive call do not appear. Active and inactive are the calls of the source. Rule for the calls: active = hit-call score of the fitted dose curve at least 0.9, where 1 is the maximum; inconclusive = response in the unintended direction; inactive = score below 0.9.
Outcome codes: Yes for active, No for inactive

INSERT INTO measurements (compound, label_class) VALUES
  ('CCCN(CCC)c1c([N+](=O)[O-])cc(C(F)(F)F)cc1[N+](=O)[O-]', 'No'),
  ('CC1(C)C(C=C(Cl)Cl)C1C(=O)OC(C#N)c1ccc(F)c(Oc2ccccc2)c1 (centres undefined)', 'No'),
  ('CCCN(CCOc1c(Cl)cc(Cl)cc1Cl)C(=O)n1ccnc1', 'Yes'),
  ('N#Cc1c(Cl)c(Cl)c(Cl)c(C#N)c1Cl', 'No'),
  ('Cc1cc(C)nc(NC(=O)NS(=O)(=O)c2ccccc2C(=O)OC2COC2)n1', 'No'),
  ('CC[C@H](C)[C@H]1O[C@]2(C=C[C@@H]1C)C[C@@H]1C[C@@H](C/C=C(\C)[C@@H](O[C@H]3C[C@H](OC)[C@@H](O[C@H]4C[C@H](OC)[C@@H](O)[C@H](C)O4)[C@H](C)O3)[C@@H](C)/C=C/C=C3\CO[C@@H]4[C@H](O)C(C)=C[C@@H](C(=O)O1)[C@]34O)O2 (tested in a mixture with another compound)', 'Yes'),
  ('CN1CSC(=S)N(C)C1', 'No'),
  ('COc1nn(CSP(=S)(OC)OC)c(=O)s1', 'Yes'),
  ('O=[N+]([O-])c1c(Cl)c(Cl)c(Cl)c(Cl)c1Cl', 'No');

----------
tgt: Heat shock factor protein 1 (Homo sapiens) (UniProt Q00613)
Sequence (Q00613 whole entry, looked up): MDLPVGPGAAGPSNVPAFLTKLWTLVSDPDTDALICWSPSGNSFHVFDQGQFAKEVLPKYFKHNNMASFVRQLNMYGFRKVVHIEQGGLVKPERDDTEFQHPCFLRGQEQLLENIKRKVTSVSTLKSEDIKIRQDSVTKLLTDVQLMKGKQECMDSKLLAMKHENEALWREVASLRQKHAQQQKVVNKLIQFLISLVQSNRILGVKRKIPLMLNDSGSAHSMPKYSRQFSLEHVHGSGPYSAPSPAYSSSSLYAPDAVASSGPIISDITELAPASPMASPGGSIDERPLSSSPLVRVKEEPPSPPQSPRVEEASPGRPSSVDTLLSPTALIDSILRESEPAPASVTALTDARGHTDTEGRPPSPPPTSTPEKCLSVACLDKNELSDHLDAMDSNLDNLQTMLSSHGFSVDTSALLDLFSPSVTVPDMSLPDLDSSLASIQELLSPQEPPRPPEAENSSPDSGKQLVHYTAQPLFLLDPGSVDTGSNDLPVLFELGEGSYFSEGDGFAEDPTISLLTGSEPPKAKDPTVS
test: ATG_HSE_CIS: Attagene CIS-FACTORIAL HepG2 Assay for human Heat Shock Transcription Factor 1 (HSE) (AID 2282953)
experimental-setup: HepG2 HSE cis-reporter, Attagene RNA transcription; actives raise or lower the signal
Active and inactive are the calls of the source. Rule for the calls: active = hit-call score of the fitted dose curve at least 0.9, where 1 is the maximum; inactive = score below 0.9.
Outcome codes: 1 (yes) (active), 0 (no) (inactive)

INSERT INTO measurements (molecule, label_class) VALUES
  ('C[C@H]1[C@H](c2ccc(Cl)cc2)SC(=O)N1C(=O)NC1CCCCC1', '0 (no)'),
  ('COc1cc(OC)nc(NC(=O)NS(=O)(=O)c2cc(NC=O)ccc2C(=O)N(C)C)n1', '0 (no)'),
  ('O=C(O)CCCOc1ccc(Cl)cc1Cl', '0 (no)'),
  ('O=[N+]([O-])c1c(Cl)c(Cl)c(Cl)c(Cl)c1Cl', '1 (yes)'),
  ('COP(=S)(OC)Oc1ccc(SC)c(C)c1', '0 (no)'),
  ('O=C(NC(=O)c1c(F)cccc1F)Nc1ccc(OC(F)(F)C(F)OC(F)(F)F)c(Cl)c1 (stereo not drawn)', '0 (no)'),
  ('CNC(=O)Oc1cccc(N=CN(C)C)c1', '0 (no)'),
  ('CC(C)(C)C(O)/C(=C\c1ccc(Cl)cc1Cl)n1cncn1 (stereo not drawn)', '0 (no)');
